For each record, write down the corresponding inhibition at 20 µM.
- System: GES-1
- assay remarks: MTT assay, growth inhibition in normal gastric epithelial cells
- Format: cell-based, human
- applied conditions: Homo sapiens, GES1, 24 h, normal gastric epithelial cells
# value in %; strip the unit string

Exam item: Determine from records and report inhibition at 20 µM for C=CCc1cc(C=C2CCC(=Cc3ccc(O)c(CC=C)c3)C2=O)ccc1O
Marked response: 23.4

Exam item: Determine from records and report inhibition at 20 µM for C=CCc1cc(/C=C2\CN(C3CC3)C/C(=C\c3ccc(O)c(CC=C)c3)C2=O)ccc1O
Marked response: 63.4

Exam item: Determine from records and report inhibition at 20 µM for C=CCc1cc(/C=C2\CN(C3CC3)C/C(=C\c3ccc(N4CCOCC4)cc3)C2=O)ccc1O
Marked response: 40

Exam item: Determine from records and report inhibition at 20 µM for C=CCc1cc(/C=C2\CN(S(=O)(=O)c3ccccc3)C/C(=C\c3ccc(O)c(CC=C)c3)C2=O)ccc1O
Marked response: 63.8

Exam item: Determine from records and report inhibition at 20 µM for C=CCc1cc(/C=C2\CN(C3CC3)C/C(=C\c3ccc(N4CCN(C)CC4)cc3)C2=O)ccc1O
Marked response: 45.6

Exam item: Determine from records and report inhibition at 20 µM for C=CCc1cc(/C=C2\CN(Cc3ccccc3)C/C(=C\c3ccc(O)c(CC=C)c3)C2=O)ccc1O
Marked response: 22.6

Exam item: Determine from records and report inhibition at 20 µM for C=CCc1cc(/C=C2\CN(CCC)C/C(=C\c3ccc(O)c(CC=C)c3)C2=O)ccc1O
Marked response: 60.9

Exam item: Determine from records and report inhibition at 20 µM for C=CCc1cc(/C=C2\CN(CC)C/C(=C\c3ccc(O)c(CC=C)c3)C2=O)ccc1O
Marked response: 22.8

Exam item: Determine from records and report inhibition at 20 µM for C=CCc1cc(/C=C2\CN(C3CC3)C/C(=C\c3ccc(N(C)C)cc3)C2=O)ccc1O
Marked response: 23.8

---

- System: BGC-823
- assay remarks: MTT assay, growth inhibition / cell viability
- Type: cell-based
- applied conditions: Homo sapiens, BGC-823, 48 h
measurement name: IC50 (µM)
# value in µM; strip the unit string

Exam item: Determine from records and report IC50 for C=CCc1cc(C=C2CCC(=Cc3ccc(O)c(CC=C)c3)C2=O)ccc1O [CA10]
Marked response: 7.14

Exam item: Determine from records and report IC50 for COc1cc(/C=C/C(=O)CC(=O)/C=C/c2ccc(O)c(OC)c2)ccc1O [curcumin]
Marked response: 38.2

---

For each record, write down the corresponding inhibition at 20 µM.
- Test system: GES-1
- assay remarks: MTT assay, growth inhibition in normal gastric epithelial cells
- Assay type: cell-based, human
- applied conditions: Homo sapiens, GES1, 24 h, normal gastric epithelial cells
- Procedure: First, we investigated whether allylated MAC alter the viability or have cytotoxic effects on cells in culture. […] Cells were plated at a density of 8 × 10^3 cells/well in 96-well plates and allowed to attach overnight. […] Absorbance was then monitored at 490 nm using a plate reader (Molecular Device Spectra MAX190, USA). Percentage of cytotoxicity was determined using the following formula: Growth inhibition (%) = (OD of control−OD of test/OD of control×100%).

Exam item: Determine from records and report inhibition at 20 µM for C=CCc1cc(/C=C2\CN(C3CC3)C/C(=C\c3ccc(OC(C)(C)C)cc3)C2=O)ccc1O [CA20]
Marked response: 25.8%

Exam item: Determine from records and report inhibition at 20 µM for C=CCc1cc(/C=C2\CSC/C(=C\c3ccc(O)c(CC=C)c3)C2=O)ccc1O [CA9]
Marked response: > 60%

Exam item: Determine from records and report inhibition at 20 µM for C=CCc1cc(/C=C2\CN(C3CC3)C/C(=C\c3ccc(OC)cc3OC)C2=O)ccc1O [CA19]
Marked response: 62%

Exam item: Determine from records and report inhibition at 20 µM for C=CCc1cc(/C=C2\COC/C(=C\c3ccc(O)c(CC=C)c3)C2=O)ccc1O [CA8]
Marked response: 27%

Exam item: Determine from records and report inhibition at 20 µM for C=CCc1cc(/C=C2\CN(C3CC3)C/C(=C\c3cc(OC)c(OC)cc3OC)C2=O)ccc1O [CA16]
Marked response: 41.3%

Exam item: Determine from records and report inhibition at 20 µM for C=CCc1cc(/C=C2\CN(C3CC3)C/C(=C\c3c(OC)cc(OC)cc3OC)C2=O)ccc1O [CA18]
Marked response: 57.8%

Exam item: Determine from records and report inhibition at 20 µM for C=CCc1cc(/C=C2\CN(C3CC3)C/C(=C\c3ccc(N(CC)CC)cc3)C2=O)ccc1O [CA14]
Marked response: 47.9%

Exam item: Determine from records and report inhibition at 20 µM for C=CCc1cc(/C=C2\CN(C3CC3)C/C(=C\c3ccc(OC)c(OC)c3)C2=O)ccc1O [CA17]
Marked response: 61.9%
